Measured pIC50 accompanies every entry in the list below.
system: HN5; test: Antiproliferative activity against human HN5 cells overexpressing EGFR after 3 days by methylene blue staining; details: HN5, 72 h
Remember the convention: pIC50 equals -log10 of concentration in molar.

Reference set, count: 2
{"compound": "CCO[C@H]1CN[C@H](C#Cc2cc3ncnc(Nc4ccc(OCc5cccc(F)c5)c(Cl)c4)c3s2)C1", "endpointResult": 7.00}
{"compound": "CCS(=O)(=O)N[C@H]1CN[C@H](C#Cc2cc3ncnc(Nc4ccc(OCc5cccc(F)c5)c(Cl)c4)c3s2)C1", "endpointResult": 6.90}

Now look at this one.
-- ask I'd like to know its pIC50. The compound in question is CCNC(=O)O[C@H]1CN[C@H](C#Cc2cc3ncnc(Nc4ccc(OCc5cccc(F)c5)c(Cl)c4)c3s2)C1 [GSK-192082A]
-- reply 7.02
